System: Candida parapsilosis
Assay: Antifungal activity against Candida parapsilosis ATCC 22019 assessed as reduction in fungal cell growth incubated for 48 hrs by broth microdilution method
Assay type: functional
Conditions: Lodderomyces parapsilosis, ATCC 22019, 48 h
Recorded measurements of MIC, one per entry

# annotated cases, reported MIC shown
>  <Compound>
C[C@H](n1nnc(CCN2CCN(c3ccc([N+](=O)[O-])cc3)CC2)n1)[C@](O)(Cn1cncn1)c1ccc(F)cc1F

>  <Measured On>
Candida parapsilosis

>  <Measurement Name>
MIC

>  <Recorded Measurement>
0.25 to 16 µg/mL

$$$$
>  <Compound>
CC(n1nnnc1CCN1CCN(c2c(Cl)cccc2Cl)CC1)C(O)(Cn1cncn1)c1ccc(F)cc1F (configuration not stated)

>  <Measured On>
Candida parapsilosis

>  <Measurement Name>
MIC

>  <Recorded Measurement>
0.5 to 16 µg/mL

$$$$
>  <Compound>
C[C@H](n1nnc(CCN2CCN(c3ccc(F)cc3)CC2)n1)[C@](O)(Cn1cncn1)c1ccc(F)cc1F

>  <Measured On>
Candida parapsilosis

>  <Measurement Name>
MIC

>  <Recorded Measurement>
0.25 to 16 µg/mL

$$$$
>  <Compound>
C[C@H](n1nnnc1CCN1CCN(c2ccccc2Cl)CC1)[C@](O)(Cn1cncn1)c1ccc(F)cc1F

>  <Measured On>
Candida parapsilosis

>  <Measurement Name>
MIC

>  <Recorded Measurement>
0.12 to 16 µg/mL

$$$$
>  <Compound>
CCCCOc1ccccc1N1CCN(CCc2nnn(CC(O)(Cn3cncn3)c3ccc(F)cc3F)n2)CC1 (configuration not stated)

>  <Measured On>
Candida parapsilosis

>  <Measurement Name>
MIC

>  <Recorded Measurement>
1 to 16 µg/mL

$$$$

Input: Dear colleague, I am looking for the recorded MIC of the following compound: OC(Cn1cncn1)(Cn1nnnc1CCN1CCN(c2ccc(Cc3ccccc3)cc2)CC1)c1ccc(F)cc1F (configuration not stated)
Output: 0.5 to 16 µg/mL

Input: Check CC(n1nnnc1CCN1CCN(C(c2ccccc2)c2ccccc2)CC1)C(O)(Cn1cncn1)c1ccc(F)cc1F (configuration not stated) too.
Output: 0.5 to 16 µg/mL

Input: How about CC(n1nnnc1CCN1CCN(c2cccc(C(F)(F)F)c2)CC1)C(O)(Cn1cncn1)c1ccc(F)cc1F (configuration not stated) ?
Output: 0.5 to 16 µg/mL

Input: Continue with OC(Cn1cncn1)(Cn1nnc(CCN2CCN(c3cccc(C(F)(F)F)c3)CC2)n1)c1ccc(F)cc1F (configuration not stated)
Output: 1 to 16 µg/mL

Input: What would you report for OC(Cn1cncn1)(Cn1nnnc1CCN1CCN(c2cccc(Cl)c2)CC1)c1ccc(F)cc1F (configuration not stated) ?
Output: 0.5 to 16 µg/mL

Input: Also CC(n1nnc(CCN2CCN(c3ccc(F)cc3)CC2)n1)C(O)(Cn1cncn1)c1ccc(F)cc1F (configuration not stated) ?
Output: 1 to 16 µg/mL

Input: Also, OC(Cn1cncn1)(Cn1nnc(CCN2CCN(c3c(Cl)cccc3Cl)CC2)n1)c1ccc(F)cc1F (configuration not stated) please.
Output: 1 to 16 µg/mL

Input: Record: `C[C@H](n1nnc(CCN2CCN(c3ccccn3)CC2)n1)[C@](O)(Cn1cncn1)c1ccc(F)cc1F`
Output: 0.25 to 16 µg/mL

Input: Another compound to look at: `OC(Cn1cncn1)(Cn1cncn1)c1ccc(F)cc1F`
Output: 2 to 8 µg/mL
